- TARGET_OF_ASSAY: human IL-23R (Homo sapiens)
- Construct: Nanoluc luciferase (Nluc); secretion signal encoded by the plasmid (not specified); crude membranes used in the assay
- Sequence (Q5VWK5 22-629): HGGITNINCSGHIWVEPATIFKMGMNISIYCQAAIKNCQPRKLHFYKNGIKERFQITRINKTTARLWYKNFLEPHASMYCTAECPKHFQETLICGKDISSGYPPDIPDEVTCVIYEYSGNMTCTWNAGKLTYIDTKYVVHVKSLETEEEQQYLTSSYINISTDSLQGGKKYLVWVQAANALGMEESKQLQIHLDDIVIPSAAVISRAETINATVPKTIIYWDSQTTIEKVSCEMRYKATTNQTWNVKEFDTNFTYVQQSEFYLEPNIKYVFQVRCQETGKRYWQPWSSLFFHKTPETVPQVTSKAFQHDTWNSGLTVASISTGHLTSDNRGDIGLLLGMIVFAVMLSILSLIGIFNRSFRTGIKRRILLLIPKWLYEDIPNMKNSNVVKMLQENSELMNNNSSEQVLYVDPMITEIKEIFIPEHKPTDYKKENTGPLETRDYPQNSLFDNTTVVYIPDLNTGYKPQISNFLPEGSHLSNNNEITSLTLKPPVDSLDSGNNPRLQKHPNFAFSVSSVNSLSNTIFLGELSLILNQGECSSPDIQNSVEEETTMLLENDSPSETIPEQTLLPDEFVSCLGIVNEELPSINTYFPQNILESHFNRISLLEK
- TEST_METHOD_NOTES: Binding assay: displacement of fluorophore (TAMRA)-labelled reference compound from human IL-23R (BRET, Nluc-IL23R fusion protein membranes)
*1 amine or outer side, *2 acyl side, *3 side chain or, on linkers, in order; H or OH if unused. Where a SMILES comes first, the peptide text is derived from it. Bridges are numbered along the chain shown (N, C = ends). [ ]: non-standard residue; d: D form. 2Nal = N[C@@H](Cc1ccc2ccccc2c1)C(=O)O; AEF = NCCOc1ccc(C[C@H](N)C(=O)O)cc1; X1 = O=C(Cc1ccc(CN[*:1])cc1)[*:2]; 3Pal = N[C@@H](Cc1cccnc1)C(=O)O; αMeL = CC(C)C[C@](C)(N)C(=O)O; β3hL = CC(C)C[C@H](N)CC(=O)O; Dab = NCC[C@H](N)C(=O)O
QUANTITY: IC50 (nM)
Numeric only. Scale: nM

Asked: Give human IL-23R (Homo sapiens) IC50 for CC(C)C[C@@H](CC(N)=O)NC(=O)[C@H](Cc1cccnc1)NC(=O)[C@H](CCN)NC(=O)[C@@H]1CCC(=O)NCc2ccc(cc2)CC(=O)N[C@@H](CO)C(=O)N[C@H]2CCC(=O)NCC[C@H](NC(=O)[C@H](CCC(N)=O)NC(=O)[C@H](Cc3c[nH]c4ccccc34)NC2=O)C(=O)N[C@@H](Cc2ccc(OCCN)cc2)C(=O)N[C@@H](Cc2ccc3ccccc3c2)C(=O)N[C@@](C)(CC(C)C)C(=O)N1 [Compound 11] ([X1]SEWQ[Dab][AEF][2Nal][αMeL]E[Dab][3Pal][β3hL]-NH2; lactam 3-6, N-10)
Given back: 0.024

###

- System: IL-23 mediated STAT3 signalling (DB cells)
- TEST_METHOD_NOTES: Functional inhibition of IL-23 mediated STAT3 signalling (phospho-STAT3 Tyr705) in DB cells
- Type: cell-based, human
- CONDITION_NOTES: Table 3-2, EC80 of hIL-23, read-out: hIL-23 (pSTAT3) antagonist IC50
*1 amine or outer side, *2 acyl side, *3 side chain or, on linkers, in order; H or OH if unused. Where a SMILES comes first, the peptide text is derived from it. Bridges are numbered along the chain shown (N, C = ends). [ ]: non-standard residue; d: D form. 2Nal = N[C@@H](Cc1ccc2ccccc2c1)C(=O)O; AEF = NCCOc1ccc(C[C@H](N)C(=O)O)cc1; X1 = O=C(Cc1ccc(CN[*:1])cc1)[*:2]; 3Pal = N[C@@H](Cc1cccnc1)C(=O)O; αMeL = CC(C)C[C@](C)(N)C(=O)O; CH2COCH2 = O=C(C[*:1])C[*:2]; Dab = NCC[C@H](N)C(=O)O
Consider the following compounds and their measured log10 of IC50 readings.
A value of 2 here means IC50 of 100 in nM, since values are log10.

The following compounds have reported results that may help.
CC(C)C[C@]1(C)NC(=O)[C@H](Cc2ccc3ccccc3c2)NC(=O)[C@H](Cc2ccc(OCCN)cc2)NC(=O)[C@@H]2CSCC(=O)CSC[C@H](NC(=O)[C@H](CO)NC(=O)Cc3ccc(cc3)CNC(=O)CC[C@@H](C(=O)N[C@H](CCCNC(=N)N)C(N)=O)NC1=O)C(=O)N[C@@H](Cc1c[nH]c3ccccc13)C(=O)N[C@@H](CCC(N)=O)C(=O)N2 [Ref 80, reference compound] ([X1]SCWQC[AEF][2Nal][αMeL]E[dR]-NH2; linker 3-6 via CH2COCH2; lactam N-10): 1.04
CC(C)C[C@]1(C)NC(=O)[C@H](Cc2ccc3ccccc3c2)NC(=O)[C@H](Cc2ccc(OCCN)cc2)NC(=O)[C@@H]2CSCC(=O)CSC[C@H](NC(=O)[C@H](CO)NC(=O)Cc3ccc(cc3)CNC(=O)CC[C@@H](C(=O)N[C@@H](CCCNC(=N)N)C(N)=O)NC1=O)C(=O)N[C@@H](Cc1c[nH]c3ccccc13)C(=O)N[C@@H](CCC(N)=O)C(=O)N2 [Ref 52, reference compound] ([X1]SCWQC[AEF][2Nal][αMeL]ER-NH2; linker 3-6 via CH2COCH2; lactam N-10): 0.89
CNC(=O)[C@H](Cc1cccnc1)NC(=O)[C@H](CO)NC(=O)[C@@H]1CCC(=O)NCc2ccc(cc2)CC(=O)N[C@@H](CO)C(=O)N[C@H]2CCC(=O)NCC[C@H](NC(=O)[C@H](CCC(N)=O)NC(=O)[C@H](Cc3c[nH]c4ccccc34)NC2=O)C(=O)N[C@@H](Cc2ccc(OCCN)cc2)C(=O)N[C@@H](Cc2ccc3ccccc3c2)C(=O)N[C@@](C)(CC(C)C)C(=O)N1 [Compound 31] ([X1]SEWQ[Dab][AEF][2Nal][αMeL]ES[3Pal]-NHMe; lactam 3-6, N-10): -1.22
CNC(=O)[C@H](Cc1cccnc1)NC(=O)[C@H](CCN)NC(=O)[C@@H]1CCC(=O)NCc2ccc(cc2)CC(=O)N[C@@H](CO)C(=O)N[C@H]2CCC(=O)NCC[C@H](NC(=O)[C@H](CCCCNC(C)=O)NC(=O)[C@H](Cc3c[nH]c4ccccc34)NC2=O)C(=O)N[C@@H](Cc2ccc(OCCN)cc2)C(=O)N[C@@H](Cc2ccc3ccccc3c2)C(=O)N[C@@](C)(CC(C)C)C(=O)N1 [Compound 24] ([X1]SEWK(Ac)[Dab][AEF][2Nal][αMeL]E[Dab][3Pal]-NHMe; lactam 3-6, N-10): -1.24

Shifting focus to the compound that follows.
Asked: Give IL-23 mediated STAT3 signalling (DB cells) log10 of IC50 for CC(=O)N[C@@H](CC(=O)O)C(=O)N[C@H]1CCC(=O)NCCCC[C@@H](C(=O)N[C@@H](CCCNC(=N)N)C(N)=O)NC(=O)[C@H](CC(C)C)NC(=O)[C@H](Cc2ccc3ccccc3c2)NC(=O)[C@H](Cc2c[nH]c3ccccc23)NC(=O)[C@@H]2CSCC(=O)CSC[C@H](NC(=O)[C@H](CO)NC1=O)C(=O)N[C@@H](Cc1c[nH]c3ccccc13)C(=O)N[C@@H](CCC(N)=O)C(=O)N2 [Ref 17, reference compound]
Given back: 2.57
